- test_details: Molar enthalpy of transition or fusion
- condition_parameters: Crystal; DSC
In this section we review reported Molar enthalpy of transition or fusion values for a set of molecules.
API: value field is a number in kcal/mol; no unit string.

Use the examples below as a reference point.
Exam item: For the molecule CC(=O)c1ccc(N)cc1 [4-acetylaniline] , what Molar enthalpy of transition or fusion is on record?
Marked response: 4.67

Exam item: For the molecule CC(=O)c1ccc(O)cc1 [4'-hydroxyacetophenone] , what Molar enthalpy of transition or fusion is on record?
Marked response: 4.07

Exam item: For the molecule CC(=O)c1cccc(O)c1 [1-(3-hydroxyphenyl)ethanone] , what Molar enthalpy of transition or fusion is on record?
Marked response: 5.58

Please look at the following molecule next.
Exam item: For the molecule CC(=O)Nc1ccccc1 [N-phenylethanamide] , what Molar enthalpy of transition or fusion is on record?
Marked response: 5.12

* * *

In this section we review reported Normal melting temperature values for a set of compounds.
- condition_parameters: Crystal; DTA
API: value field is a number in °C; no unit string.

Exam item: For the compound CC(=O)c1cccc(O)c1 [1-(3-hydroxyphenyl)ethanone] , what Normal melting temperature is on record?
Marked response: 93.6

Further cases:
Exam item: For the compound CC(=O)Nc1ccccc1 [N-phenylethanamide] , what Normal melting temperature is on record?
Marked response: 113.8

Exam item: For the compound CC(=O)c1ccc(N)cc1 [4-acetylaniline] , what Normal melting temperature is on record?
Marked response: 105.1

Exam item: For the compound CC(=O)c1ccc(O)cc1 [4'-hydroxyacetophenone] , what Normal melting temperature is on record?
Marked response: 108.2
